Conditions: rat; liver microsomes; pH 7.4; 15.0 min; 1.0 µM
Catalogue of half-life readings, one per entry.

{"smiles-structure": "CC(=O)Nc1ccc(C(=O)Nc2ccccc2N)cc1", "readout-value": "> 30 min"}

Consider the compound shown here: O=S(=O)(Nc1nccs1)c1ccc(NCc2cc(F)ccc2O)cc1 What is its recorded half-life?
12 min

What do you have for Cc1ccc(S(=O)(=O)Nc2ccc(OC(F)(F)F)cc2C(=O)Nc2nc(-c3ccccc3)cs2)cc1 ?
24 min

What do you have for CC(=O)c1ccc(N2CCN(C(=O)c3ccc4c(c3)CC(=O)N4)CC2)cc1 ?
> 30 min

What do you have for COc1cccc(C(=O)Nc2nnc(S(=O)(=O)N3CCOCC3)s2)c1 ?
> 30 min
